zone of inhibition at 500 ppm: recorded values
- System: Staphylococcus aureus
- assay overview: Antimicrobial activity against Staphylococcus aureus at 500 ppm after 24 hr by disk diffusion method
- Type: functional
- measurement conditions: read-out: IZ
Please reply with the bare figure in mm and do not write the unit itself.

O=C(/C=C/c1ccc(Cl)cc1)c1ccc(N2CCOCC2)cc1    22
COc1ccc(/C=C/C(=O)c2ccc(N3CCOCC3)cc2)cc1    30
O=C(/C=C/c1ccc(F)cc1)c1ccc(N2CCOCC2)cc1    22
Cc1ccc(/C=C/C(=O)c2ccc(N3CCOCC3)cc2)cc1    30
O=C(/C=C/c1ccccc1)c1ccc(N2CCOCC2)cc1    22

Turning now to a further compound:
Prompt: Field request: zone of inhibition at 500 ppm | item: O=C(/C=C/c1cccc([N+](=O)[O-])c1)c1ccc(N2CCOCC2)cc1
Completion: 22
